# experiment: Equilibrium solubility in SMEDDS formulation
# Format: physicochemical
# protocol-conditions: in SMEDDS (Cremophor EL, Carbitol, Captex 355); room temperature overnight
measurement-type: Solubility (mg/g)

Worked examples, 2 compounds total:
{"compound": "COc1cc(C2Oc3cc([C@H]4Oc5cc(O)cc(O)c5C(=O)[C@@H]4O)ccc3OC2CO)ccc1O (stereo partly shown)", "scale-unit": "mg/g", "observed-result": 32.8}
{"compound": "O=C(/C=C/C=C/c1ccc2c(c1)OCO2)N1CCCCC1", "scale-unit": "mg/g", "observed-result": 45.2}

[a] O=c1c(O)c(-c2ccc(O)c(O)c2)oc2cc(O)cc(O)c12
[b] COc1cc(/C=C/C(=O)CC(=O)/C=C/c2ccc(O)c(OC)c2)ccc1O
Endpoint returns the identifier whose Solubility is numerically larger, either a or b . // caller expects the label of the chosen entry
b

The reported measurements were obtained from paper PMC4240011.
